Every entry's value here was drawn from patent US10793522B2.

tested on: hSLC13A5 (Homo sapiens, UniProt Q86YT5)
Sequence (Q86YT5 whole entry): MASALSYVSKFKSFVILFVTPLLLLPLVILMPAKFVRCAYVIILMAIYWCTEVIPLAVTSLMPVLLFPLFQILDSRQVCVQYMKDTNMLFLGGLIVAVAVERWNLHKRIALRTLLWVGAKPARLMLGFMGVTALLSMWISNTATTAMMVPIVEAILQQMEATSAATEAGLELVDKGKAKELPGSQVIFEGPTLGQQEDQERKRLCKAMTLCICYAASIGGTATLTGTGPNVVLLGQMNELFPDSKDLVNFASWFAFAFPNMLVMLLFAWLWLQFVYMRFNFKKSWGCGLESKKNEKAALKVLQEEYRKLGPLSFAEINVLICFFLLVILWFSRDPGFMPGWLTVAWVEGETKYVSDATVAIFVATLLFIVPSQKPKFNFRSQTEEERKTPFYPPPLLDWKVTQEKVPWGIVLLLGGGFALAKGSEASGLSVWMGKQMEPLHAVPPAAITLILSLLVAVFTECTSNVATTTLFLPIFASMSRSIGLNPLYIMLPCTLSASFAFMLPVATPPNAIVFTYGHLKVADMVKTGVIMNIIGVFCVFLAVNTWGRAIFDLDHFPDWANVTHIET
assay procedure: HepG2/14C-citrate uptake assay
Type: cell-based
Set-up: HepG2 cells endogenously express hSLC13A5 transporter which is responsible for the uptake of citrate into these cells; endogenous in cells; host or cells: HepG2
experimental conditions: HepG2 cells endogenously expressing hSLC13A5; Cytostar-T; 14C-citrate ~1.8 μM; incubation over night
pIC50: −log10 of the molar value.
metric name: pIC50

* O=C(NCc1ccc(Cl)cn1)C1CCN(S(=O)(=O)c2cc(Cl)cc(Cl)c2)CC1 | 6.99

I. Cc1cc(C)cc(S(=O)(=O)N2CCC(C(=O)NCc3nc(C)cs3)CC2)c1
II. CCc1ccc(CNC(=O)C2CCN(S(=O)(=O)c3cc(Br)cc(Br)c3)CC2)nc1
Which of the two gives a bigger number for pIC50: I or II ? Respond with the label that goes with your answer. II

P. Cc1csc(CNC(=O)C2CCN(S(=O)(=O)c3cc(Cl)cc(Cl)c3)CC2)n1
Q. O=C(NCc1ccc(F)cc1)C1CCN(S(=O)(=O)c2cc(Cl)cc(Cl)c2)CC1
# return whichever of P and Q has the smaller pIC50 Let me know the label of the one you choose. P

* * *

tested on: hSLC13A5 (Homo sapiens, UniProt Q86YT5)
assay procedure: HepG2/14C-citrate uptake assay
Format: cell-based
Design: HepG2 cells endogenously express hSLC13A5 transporter which is responsible for the uptake of citrate into these cells; endogenous in cells; host or cells: HepG2
experimental conditions: HepG2 cells endogenously expressing hSLC13A5; Cytostar-T; 14C-citrate ~1.8 μM; incubation over night
metric name: IC50 (nM)

Example compounds with recorded IC50:
- Cc1cc(C)cc(S(=O)(=O)N2CCC(C(=O)NCc3ncc(C)s3)CC2)c1 [(I-46)]: 202
- O=C(NCc1ccc(Br)cn1)C1CCN(S(=O)(=O)c2cc(Cl)cc(Cl)c2)CC1 [(I-28)]: 171

a. Cc1ccc(CNC(=O)C2CCN(S(=O)(=O)c3cc(Cl)cc(Cl)c3)CC2)cc1 [(I-8)]
b. Cc1cc(Br)cc(S(=O)(=O)N2CCC(C(=O)NCc3cccnc3)CC2)c1 [(I-60)]
Select one: a or b . Criterion: greater recorded IC50. Identify your selection by its label. b

* * *

tested on: hSLC13A5 (Homo sapiens, UniProt Q86YT5)
assay procedure: HepG2/14C-citrate uptake assay
Format: cell-based
Parameters: HepG2 cells endogenously express hSLC13A5 transporter which is responsible for the uptake of citrate into these cells; endogenous in cells; host or cells: HepG2
experimental conditions: HepG2 cells endogenously expressing hSLC13A5; Cytostar-T; 14C-citrate ~1.8 μM; incubation over night
metric name: IC50 (nM)

* O=C(NCc1cc(F)ccc1F)C1CCN(S(=O)(=O)c2cc(Cl)cc(Cl)c2)CC1 [(I-24)] | 83
* Cc1ccccc1CNC(=O)C1CCN(S(=O)(=O)c2cc(Cl)cc(Cl)c2)CC1 [(I-19)] | 72

a. CCOc1cc(Cl)cc(S(=O)(=O)N2CCC(C(=O)NCc3ccc(C#N)cc3)CC2)c1 [(I-54)]
b. Cc1cc(Br)cc(S(=O)(=O)N2CCC(C(=O)NCc3ccccn3)CC2)c1 [(I-61)]
Which shows the larger IC50 value: a or b ? Indicate your choice by writing its label. b
(b: 149 nM, a: 62 nM)
